Reported mean cell size by item:
test system: Saccharomyces cerevisiae BY4741 SeMeCo community; assay: mean cell size (pixel area) (pixels); higher = larger cells; settings: 10 µM; 24 h; SM minimal medium
Counter-ions that a name gives are not always drawn.
Provide a numeric answer; units are not to be included.

Cc1cc(C(C#N)c2ccc(Cl)cc2)c(Cl)cc1NC(=O)c1cc(I)cc(I)c1O (configuration not stated) ... 12.3
O=C(O[C@H]1C[N+]2(CCCOc3ccccc3)CCC1CC2)C(O)(c1cccs1)c1cccs1 [Aclidinium Bromide] ... 12.6
N[C@@H]1C[C@H]1c1ccccc1 [Tranylcypromine (2-PCPA) HCl] ... 12.3

[in] State its mean cell size: `CC(=O)OCC1=C(C(=O)O)N2C(=O)[C@@H](N)[C@H]2SC1`
[out] 12.3

[in] State its mean cell size: COc1ccc2c(c1)[C@]13CCCC[C@@H]1[C@H](C2)N(C)CC3 [Dextromethorphan hydrobromide hydrate]
[out] 12.5

[in] State its mean cell size: COc1cc2c(cc1OC)C1CC(=O)C(CC(C)C)CN1CC2 (configuration not stated)
[out] 12.6

[in] State its mean cell size: CN[C@@H]1[C@@H](O)[C@@H](O[C@@H]2[C@@H](O)[C@H](O[C@H]3O[C@H]([C@@H](C)O)[C@@H](O)[C@H](O)[C@H]3N)[C@@H](N)C[C@H]2N)OC[C@]1(C)O [Geneticin (G418 Sulfate)]
[out] 12
